Assay: human bioavailability comparison study, Tablet Formulation 9 vs co-administered single entity products
Type: in vivo
Settings: human, in vivo, Treatment C: two units Tablet Formulation 9b; human plasma, fasted
ASSAY METRIC: AUC(0-inf)

>>> measured_result("CC(C)OC(=O)[C@@H](C)NP(=O)(OC[C@H]1O[C@@H](n2ccc(=O)[nH]c2=O)[C@](C)(Cl)[C@@H]1O)Oc1ccccc1 (stereo partly shown)")
"3.54 µM·h"

----------
Experiment: log D
Assay type: physicochemical
Conditions: pH=7
ASSAY METRIC: logD

>>> measured_result("C=C[C@@H]1C[C@]1(NC(=O)[C@@H]1C[C@@H]2CN1C(=O)[C@H](C(C)(C)C)NC(=O)O[C@@H]1C[C@H]1CCCCCc1nc3ccc(OC)cc3nc1O2)C(=O)NS(=O)(=O)C1CC1 [Compound III, hydrate]")
-3

----------
Assay: human bioavailability comparison study, Tablet Formulation 10 vs co-administered single entity products
Format: in vivo
Conditions: human, plasma, oral, Treatment A: co-administered single entity products, equivalent total dose; human plasma, fasted; read-out: AUC0-24 GM
ASSAY METRIC: AUC(0-t) (nM·h)

>>> measured_result("COC(=O)N[C@H](C(=O)N1CCC[C@H]1c1nc(-c2ccc3c(c2)O[C@@H](c2ccccc2)n2c-3cc3cc(-c4c[nH]c([C@@H]5CCCN5C(=O)[C@@H](NC(=O)OC)C(C)C)n4)ccc32)c[nH]1)C(C)C")
1120
>>> measured_result("C=C[C@@H]1C[C@]1(NC(=O)[C@@H]1C[C@@H]2CN1C(=O)[C@H](C(C)(C)C)NC(=O)O[C@@H]1C[C@H]1CCCCCc1nc3ccc(OC)cc3nc1O2)C(=O)NS(=O)(=O)C1CC1 [Compound III, hydrate]")
240

----------
Quick reference: AUC(0-inf) of the listed items.
Experiment: human bioavailability comparison study, Tablet Formulation 9 vs co-administered single entity products
Assay type: in vivo
Details: human, plasma, oral, Treatment C: two units Tablet Formulation 9b; human plasma, fasted
ASSAY METRIC: AUC(0-inf) (µM·h)

>>> measured_result("COC(=O)N[C@H](C(=O)N1CCC[C@H]1c1nc(-c2ccc3c(c2)O[C@@H](c2ccccc2)n2c-3cc3cc(-c4c[nH]c([C@@H]5CCCN5C(=O)[C@@H](NC(=O)OC)C(C)C)n4)ccc32)c[nH]1)C(C)C")
2.38
>>> measured_result("C=C[C@@H]1C[C@]1(NC(=O)[C@@H]1C[C@@H]2CN1C(=O)[C@H](C(C)(C)C)NC(=O)O[C@@H]1C[C@H]1CCCCCc1nc3ccc(OC)cc3nc1O2)C(=O)NS(=O)(=O)C1CC1 [Compound III, hydrate]")
0.617

----------
Experiment: human bioavailability comparison study, Tablet Formulation 10 vs co-administered single entity products
Type: in vivo
Conditions: human, in vivo, Treatment C: one unit Tablet Formulation 10b (300 mg Compound I, 100 mg Compound II, 50 mg Compound III); human plasma, fasted; read-out: AUC0-last GM
Procedure: The blend is lubricated with magnesium stearate prior to roller compaction. Following roller compaction, the granules are further lubricated with magnesium stearate before compression on a rotary press. Tablet properties of apparent density and solid fraction are determined by gravimetric measurement of the drug product and geometric estimation of size with corresponding component powder measure of true density using helium pycnometry. […]
ASSAY METRIC: AUC(0-t) (µM·h)

>>> measured_result("CC(C)OC(=O)[C@@H](C)NP(=O)(OC[C@H]1O[C@@H](n2ccc(=O)[nH]c2=O)[C@](C)(Cl)[C@@H]1O)Oc1ccccc1 (stereo partly shown) [Compound I]")
1.63

FYI, the data here is from patent US20180228828A1.
